# experimental target: MshC D251A mutant (Mycolicibacterium smegmatis, UniProt A0QZY0, D251A)
# assay text: Tryptophan fluorescence titration of inhibitor binding
# test parameters: fluorescence method, 0.1 μM protein, pH 7.8, 25 °C

# molecule, unit spec, Kd
measured = [
    ("Nc1ncnc2c1ncn2[C@@H]1O[C@H](COS(=O)(=O)NC(=O)[C@@H](N)CS)[C@@H](O)[C@H]1O [CSA, reference compound]", "nM", 340),
]

* * *

# experimental target: MshC T46V mutant (Mycolicibacterium smegmatis, UniProt A0QZY0, T46V)
# assay text: Tryptophan fluorescence titration of inhibitor binding
# Design: species or system Mycobacterium smegmatis
# test parameters: fluorescence method, 0.1 μM protein, pH 7.8, 25 °C
pKd: −log10 of the molar value.

# compound, pKd
rows = [
    ("Nc1ncnc2c1ncn2[C@@H]1O[C@H](COS(=O)(=O)NC(=O)[C@@H](N)CS)[C@@H](O)[C@H]1O [CSA, reference compound]", 6.82),
]
